The following compounds are listed with their measured mortality at 250 ppm values.
System: Diabrotica balteata (rootworm larvae)
assayText: Residual test, rootworm larvae (DB), Filter paper/maize seed
Type: in vivo
conditionSummary: 72 h, 250 ppm, 3 days, read-out: DB grading of mortality
resultType: mortality at 250 ppm

compound	testSystem	result
CC(C)(C)c1ccc(C(=CCCc2cccc(Oc3ccccc3)c2)C(F)(F)F)cc1	Diabrotica balteata (rootworm larvae)	< 50%
CCOc1ccc(C(=CCCc2cccc(Oc3ccccc3)c2)C(F)(F)C(F)(F)F)cc1	Diabrotica balteata (rootworm larvae)	< 50%
CCOc1ccc(C(C/C=C\c2cccc(Oc3ccccc3)c2)C(F)(F)F)cc1 (stereo not shown)	Diabrotica balteata (rootworm larvae)	80 to 100%
CCOc1ccc(C(CC=Cc2cccc(Oc3ccccc3)c2)C(F)(F)F)cc1 (stereo not shown)	Diabrotica balteata (rootworm larvae)	80 to 100%
FC(F)(F)Oc1ccc(C(F)(CCCc2cccc(Oc3ccccc3)c2)C(F)(F)F)cc1 (racemic)	Diabrotica balteata (rootworm larvae)	80 to 100%
FC(F)(F)C(CCCc1cccc(Oc2ccccc2)c1)c1ccc2c(c1)CCC2 (racemic)	Diabrotica balteata (rootworm larvae)	< 50%
CCOc1ccc(/C(=C\C=C/c2ccc(F)c(Oc3ccccc3)c2)C(F)(F)F)cc1	Diabrotica balteata (rootworm larvae)	< 50%
FC(F)(F)COc1ccc(C(CCCc2cccc(Oc3ccccc3)c2)C(F)(F)F)cc1 (racemic)	Diabrotica balteata (rootworm larvae)	80 to 100%
CCOc1ccc(C(CCCc2ccc(F)c(Oc3ccccc3)c2)C(F)(F)F)cc1 (racemic)	Diabrotica balteata (rootworm larvae)	80 to 100%
CCOc1ccc(C(C/C=C/c2cccc(Oc3ccccc3)c2)C(F)(F)F)cc1 (stereo not shown)	Diabrotica balteata (rootworm larvae)	< 50%
CCOc1ccc(C(CCCc2cccc(Oc3ccccc3)c2)C(F)(F)C(F)(F)F)cc1 (racemic)	Diabrotica balteata (rootworm larvae)	< 50%
FC(F)(F)Oc1ccc(C(=CCCc2cccc(Oc3ccccc3)c2)C(F)(F)F)cc1	Diabrotica balteata (rootworm larvae)	80 to 100%
FC(F)(F)Oc1ccc(C(Cl)(CCCc2cccc(Oc3ccccc3)c2)C(F)(F)F)cc1 (racemic)	Diabrotica balteata (rootworm larvae)	< 50%
FC(F)(F)c1ccc(C(CCCc2cccc(Oc3ccccc3)c2)C(F)(F)F)cc1 (racemic)	Diabrotica balteata (rootworm larvae)	80 to 100%
CC(C)(C)c1ccc(C(CCCc2cccc(Oc3ccccc3)c2)C(F)(F)F)cc1 (racemic)	Diabrotica balteata (rootworm larvae)	80 to 100%
FC(F)(F)Oc1ccc(C(CCCc2cccc(Oc3ccccc3)c2)C(F)(F)F)cc1 (racemic)	Diabrotica balteata (rootworm larvae)	80 to 100%
FC(F)(F)C(=CCCc1cccc(Oc2ccccc2)c1)c1ccc(C(F)(F)F)cc1	Diabrotica balteata (rootworm larvae)	< 50%
CCOc1ccc(/C(=C\C=C\c2ccc(F)c(Oc3ccccc3)c2)C(F)(F)F)cc1	Diabrotica balteata (rootworm larvae)	80 to 100%
CCOc1ccc(C(CC=Cc2ccc(F)c(Oc3ccccc3)c2)C(F)(F)F)cc1 (stereo not shown)	Diabrotica balteata (rootworm larvae)	80 to 100%
Fc1ccc(C(CCCc2cccc(Oc3ccccc3)c2)C(F)(F)F)cc1 (racemic)	Diabrotica balteata (rootworm larvae)	80 to 100%
FC(F)(F)C(=CCCc1cccc(Oc2ccccc2)c1)c1ccc2c(c1)CCC2	Diabrotica balteata (rootworm larvae)	50 to 79%
Fc1ccc(C(=CCCc2cccc(Oc3ccccc3)c2)C(F)(F)F)cc1	Diabrotica balteata (rootworm larvae)	50 to 79%
